# System: A498
# assay.summary: Growth inhibition of human A498 cells at 10 uM incubated for 48 hrs by sulforhodamine B assay relative to control
# Type: functional
# details: read-out: GI
For each record, write down the corresponding inhibition of growth at 10 µM.
Write your answer as a measured quantity: the number, then the unit.

So what does the record say about inhibition of growth at 10 µM for O=C(CNc1nc2ccccc2s1)Nc1ccc(-c2nc3ccccc3s2)cc1 ?
6.15%

So what does the record say about inhibition of growth at 10 µM for O=C(Cn1cnc2ccccc21)Nc1ccc(-c2nc3ccccc3s2)cc1 ?
33.2%

So what does the record say about inhibition of growth at 10 µM for O=C(CN(c1ccccc1)c1ccccc1)Nc1ccc(-c2nc3ccccc3s2)cc1 ?
6.91%

So what does the record say about inhibition of growth at 10 µM for O=C(CN1C(=O)C(=O)c2ccccc21)Nc1ccc(-c2nc3ccccc3s2)cc1 ?
10.7%

So what does the record say about inhibition of growth at 10 µM for Cc1cc(C)n(CC(=O)Nc2ccc(-c3nc4ccccc4s3)cc2)n1 ?
5.37%

So what does the record say about inhibition of growth at 10 µM for O=C(Cn1cncn1)Nc1ccc(-c2nc3ccccc3s2)cc1 ?
11.6%

So what does the record say about inhibition of growth at 10 µM for O=C(CNc1nnc(-c2ccc(Cl)cc2)o1)Nc1ccc(-c2nc3ccccc3s2)cc1 ?
18%

So what does the record say about inhibition of growth at 10 µM for Cc1cc(NCC(=O)Nc2ccc(-c3nc4ccccc4s3)cc2)no1 ?
10.3%

So what does the record say about inhibition of growth at 10 µM for O=C(Cn1ccc2ccccc21)Nc1ccc(-c2nc3ccccc3s2)cc1 ?
0.94%

So what does the record say about inhibition of growth at 10 µM for O=C(Cn1c2ccccc2c2ccccc21)Nc1ccc(-c2nc3ccccc3s2)cc1 ?
9.51%

###

# Test system: UO-31
# assay.summary: Growth inhibition of human UO-31 cells at 10 uM incubated for 48 hrs by sulforhodamine B assay relative to control
# Assay type: functional
# details: read-out: GI
endpoint: inhibition of growth at 10 µM (%)
Answer format: numeric, % implied, no suffix.

So what does the record say about inhibition of growth at 10 µM for O=C(CNc1ccc(Cl)cc1)Nc1ccc(-c2nc3ccccc3s2)cc1 ?
35

So what does the record say about inhibition of growth at 10 µM for O=C(CNc1nc(-c2ccc(Cl)cc2)cs1)Nc1ccc(-c2nc3ccccc3s2)cc1 ?
25.1

So what does the record say about inhibition of growth at 10 µM for O=C(CNc1nnc(-c2ccc(Cl)cc2)o1)Nc1ccc(-c2nc3ccccc3s2)cc1 ?
26.7

So what does the record say about inhibition of growth at 10 µM for O=C(Cn1cncn1)Nc1ccc(-c2nc3ccccc3s2)cc1 ?
23.1

So what does the record say about inhibition of growth at 10 µM for O=C(CNc1nc2ccccc2s1)Nc1ccc(-c2nc3ccccc3s2)cc1 ?
19.5

###

# Test system: UO-31
# assay.summary: Growth inhibition of human UO-31 cells at 10 uM incubated for 48 hrs by sulforhodamine B assay relative to control
# Assay type: functional
# details: read-out: GI
For each record, write down the corresponding inhibition of growth at 10 µM.
Write your answer as a measured quantity: the number, then the unit.

Please provide the recorded inhibition of growth at 10 µM for CN1CCN(CC(=O)Nc2ccc(-c3nc4ccccc4s3)cc2)CC1 , tested on UO-31.
42.5%

Please provide the recorded inhibition of growth at 10 µM for O=C(CN(c1ccccc1)c1ccccc1)Nc1ccc(-c2nc3ccccc3s2)cc1 , tested on UO-31.
3.62%

Please provide the recorded inhibition of growth at 10 µM for O=C(CN1CCCCC1)Nc1ccc(-c2nc3ccccc3s2)cc1 , tested on UO-31.
6.94%

Please provide the recorded inhibition of growth at 10 µM for Cc1cc(NCC(=O)Nc2ccc(-c3nc4ccccc4s3)cc2)no1 , tested on UO-31.
23%

Please provide the recorded inhibition of growth at 10 µM for Cc1ccc(NCC(=O)Nc2ccc(-c3nc4ccccc4s3)cc2)cc1 , tested on UO-31.
37.5%

Please provide the recorded inhibition of growth at 10 µM for O=C(CNc1c(Cl)cccc1Cl)Nc1ccc(-c2nc3ccccc3s2)cc1 , tested on UO-31.
26.3%

Please provide the recorded inhibition of growth at 10 µM for O=C(Cn1nnc2ccccc21)Nc1ccc(-c2nc3ccccc3s2)cc1 , tested on UO-31.
13.5%

Please provide the recorded inhibition of growth at 10 µM for O=C(CN1CCOCC1)Nc1ccc(-c2nc3ccccc3s2)cc1 , tested on UO-31.
4.97%

Please provide the recorded inhibition of growth at 10 µM for COc1ccc(NCC(=O)Nc2ccc(-c3nc4ccccc4s3)cc2)cc1 , tested on UO-31.
28.1%

Please provide the recorded inhibition of growth at 10 µM for O=C(Cn1ccc2ccccc21)Nc1ccc(-c2nc3ccccc3s2)cc1 , tested on UO-31.
7.58%

Please provide the recorded inhibition of growth at 10 µM for O=C(Cn1ccnc1)Nc1ccc(-c2nc3ccccc3s2)cc1 , tested on UO-31.
39.6%
